Reference for the values: paper PMC7990796

target: human serum albumin (Homo sapiens); assay: Fluorescence quenching of HSA (Stern-Volmer, saturation binding, van't Hoff analysis); settings: KD, 312 K, mean [95% CI], n = 3
recorded.endpoint: Kd (µM)
Respond numerically; units are µM and should not be typed.

Record `CSCCNc1nc(SCCC(F)(F)F)nc2c1ncn2[C@@H]1O[C@H](COP(=O)(O)OP(=O)(O)C(Cl)(Cl)P(=O)(O)O)[C@@H](O)[C@H]1O` / human serum albumin (Homo sapiens), Kd recorded as 11.8

###

biological target: human serum albumin (Homo sapiens); assay: Fluorescence quenching of HSA (Stern-Volmer, saturation binding, van't Hoff analysis); details: KD, 302 K, mean [95% CI], n = 3
recorded.endpoint: pKd
Give only the number. pKd is defined as minus log10 of concentration in molar units.

Kindly note the recorded pKd for `CSCCNc1nc(SCCC(F)(F)F)nc2c1ncn2[C@@H]1O[C@H](COP(=O)(O)OP(=O)(O)C(Cl)(Cl)P(=O)(O)O)[C@@H](O)[C@H]1O` , which is 5.01

###

molecular target: human serum albumin (Homo sapiens); assay: Surface plasmon resonance binding to immobilized HSA (Biacore X); conditions: KA (equilibrium association constant), obtained from the binding rate constants
recorded.endpoint: pKd
Scale for pKd: -log10 of concentration given in mol/L; no unit attached.

Measured pKd, CSCCNc1nc(SCCC(F)(F)F)nc2c1ncn2[C@@H]1O[C@H](COP(=O)(O)OP(=O)(O)C(Cl)(Cl)P(=O)(O)O)[C@@H](O)[C@H]1O [cangrelor] : 4.79

###

molecular target: human serum albumin (Homo sapiens, UniProt P02768); assay: Fluorescence quenching of HSA (Stern-Volmer, saturation binding, van't Hoff analysis); conditions: KD, 292 K, mean [95% CI], n = 3
Sequence (P02768 25-609): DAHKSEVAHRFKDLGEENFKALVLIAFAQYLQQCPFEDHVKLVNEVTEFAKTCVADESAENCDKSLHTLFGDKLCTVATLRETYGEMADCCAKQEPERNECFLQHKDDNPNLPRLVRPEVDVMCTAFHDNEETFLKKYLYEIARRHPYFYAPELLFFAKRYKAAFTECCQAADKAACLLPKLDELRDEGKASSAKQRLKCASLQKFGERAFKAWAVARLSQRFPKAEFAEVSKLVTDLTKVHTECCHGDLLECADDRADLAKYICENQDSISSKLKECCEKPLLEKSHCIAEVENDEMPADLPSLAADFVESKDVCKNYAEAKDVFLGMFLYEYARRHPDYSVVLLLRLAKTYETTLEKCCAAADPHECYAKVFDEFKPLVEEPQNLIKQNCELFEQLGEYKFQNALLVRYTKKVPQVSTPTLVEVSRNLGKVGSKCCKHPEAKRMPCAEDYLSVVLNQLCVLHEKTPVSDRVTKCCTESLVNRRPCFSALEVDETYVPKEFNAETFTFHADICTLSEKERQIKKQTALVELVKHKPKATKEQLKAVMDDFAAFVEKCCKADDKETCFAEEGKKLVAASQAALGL
recorded.endpoint: Kd (µM)
Express your answer in µM, writing the number without its unit.

The reported human serum albumin (Homo sapiens, UniProt P02768) Kd of `CSCCNc1nc(SCCC(F)(F)F)nc2c1ncn2[C@@H]1O[C@H](COP(=O)(O)OP(=O)(O)C(Cl)(Cl)P(=O)(O)O)[C@@H](O)[C@H]1O` is 14.5

###

target: human serum albumin (Homo sapiens); test: Surface plasmon resonance binding to immobilized HSA (Biacore X); conditions: human, pH 7.4
recorded.endpoint: koff
Form field: result (number plus unit)

Reported koff ( CSCCNc1nc(SCCC(F)(F)F)nc2c1ncn2[C@@H]1O[C@H](COP(=O)(O)OP(=O)(O)C(Cl)(Cl)P(=O)(O)O)[C@@H](O)[C@H]1O [cangrelor] ) = 0.0573 s⁻¹

###

target: human serum albumin (Homo sapiens, UniProt P02768); experiment: Fluorescence quenching of HSA in the presence of a competitor (warfarin or cangrelor); assay type: binding; set-up: purchased Sigma (St. Louis, MO, United States); conditions: control of the warfarin series, mean [95% CI], n = 5–6; read-out: KD without competitor
recorded.endpoint: Kd (µM)
Give just the numeric value; µM need not be written.

In plain terms, `CSCCNc1nc(SCCC(F)(F)F)nc2c1ncn2[C@@H]1O[C@H](COP(=O)(O)OP(=O)(O)C(Cl)(Cl)P(=O)(O)O)[C@@H](O)[C@H]1O` has a documented Kd of 8.3

###

molecular target: human serum albumin (Homo sapiens); test: Fluorescence quenching of HSA (Stern-Volmer, saturation binding, van't Hoff analysis); details: KD, 0‒38.5 µM, nonlinear regression, mean [95% CI], n = 3
recorded.endpoint: pKd
Field pKd (float): negative decimal logarithm of the concentration in molar.

Sure, the documented pKd for CSCCNc1nc(SCCC(F)(F)F)nc2c1ncn2[C@@H]1O[C@H](COP(=O)(O)OP(=O)(O)C(Cl)(Cl)P(=O)(O)O)[C@@H](O)[C@H]1O [cangrelor] is 4.96
